Tested on: MCF-7 (human breast adenocarcinoma)
experimental-details: Photodynamic activity (phototoxicity, neutral red uptake) on MCF-7
Type: cell-based
experimental-context: 12 h incubation, Xe-lamp 15 min, λ > 570 nm, 11.2 J/cm^2; mean ± SD; t.w. = this work
Quick list: EC50 per entry.
Just the number in nM, nothing appended.

| compound | assay-system | EC50 / nM |
| --- | --- | --- |
| CC[N+](CC)(CC)CCSc1ccc(SCC[N+](CC)(CC)CC)c2c1C1=NC2=Nc2c3c(SCC[N+](CC)(CC)CC)ccc(SCC[N+](CC)(CC)CC)c3c3[n]2[Zn][n]2c(c4c(SCC[N+](CC)(CC)CC)ccc(SCC[N+](CC)(CC)CC)c4c2=NC2=NC(=N3)c3c(SCC[N+](CC)(CC)CC)ccc(SCC[N+](CC)(CC)CC)c32)=N1.[I-].[I-].[I-].[I-].[I-].[I-].[I-].[I-] [C9Zn] | MCF-7 (human breast adenocarcinoma) | 210 |
| C[n+]1cccc(Oc2ccc3c(c2)C2=NC3=Nc3c4cc(Oc5ccc[n+](C)c5)ccc4c4[n]3[Zn][n]3c(c5ccc(Oc6ccc[n+](C)c6)cc5c3=NC3=NC(=N4)c4cc(Oc5ccc[n+](C)c5)ccc43)=N2)c1.[I-].[I-].[I-].[I-] [C5Zn-I] | MCF-7 (human breast adenocarcinoma) | 60 |
| COCCOCCOCCOCCOc1ccc(OCCOCCOCCOCCOC)c2c1C1=NC2=Nc2c3ccccc3c3[n]2[Zn][n]2c(c4ccccc4c2=N1)=NC1=NC(=N3)c2ccccc21 [N1Zn] | MCF-7 (human breast adenocarcinoma) | 6 |

Query compound follows.
Task item: Answer with the recorded EC50 for the compound listed here: O=S(=O)([O-])c1cc(S(=O)(=O)[O-])c2cc(Oc3cccc4c3C3=NC4=Nc4c5c(Oc6ccc7cc(S(=O)(=O)[O-])cc(S(=O)(=O)[O-])c7c6)cccc5c5[n]4[Zn][n]4c(c6cccc(Oc7ccc8cc(S(=O)(=O)[O-])cc(S(=O)(=O)[O-])c8c7)c6c4=NC4=NC(=N5)c5c(Oc6ccc7cc(S(=O)(=O)[O-])cc(S(=O)(=O)[O-])c7c6)cccc54)=N3)ccc2c1.[Na+].[Na+].[Na+].[Na+].[Na+].[Na+].[Na+].[Na+] [A7Zn]
Reply: 5100

---

Quick list: λF, fluorescence emission maximum per entry.
experimental-details: Absorption and fluorescence emission spectra in DMF
Type: physicochemical
experimental-context: in DMF
Just the number in nm, nothing appended.

| compound | measure-name | measured |
| --- | --- | --- |
| C[n+]1cccc(Oc2ccc3c(c2)C2=NC3=Nc3c4cc(Oc5ccc[n+](C)c5)ccc4c4[n]3[Zn][n]3c(c5ccc(Oc6ccc[n+](C)c6)cc5c3=NC3=NC(=N4)c4cc(Oc5ccc[n+](C)c5)ccc43)=N2)c1.O=S(=O)(O)O.O=S(=O)(O)O.O=S(=O)([O-])[O-].O=S(=O)([O-])[O-] [C5Zn-SO 4] | λF, fluorescence emission maximum | 682 |
| C[n+]1cccc(Oc2cc3c(cc2Oc2ccc[n+](C)c2)C2=Nc4c5cc(Oc6ccc[n+](C)c6)c(Oc6ccc[n+](C)c6)cc5c5[n]4[Zn][n]4c(c6cc(Oc7ccc[n+](C)c7)c(Oc7ccc[n+](C)c7)cc6c4=NC4=NC(=N5)c5cc(Oc6ccc[n+](C)c6)c(Oc6ccc[n+](C)c6)cc54)=NC3=N2)c1.[I-].[I-].[I-].[I-].[I-].[I-].[I-].[I-] [C6Zn] | λF, fluorescence emission maximum | 683 |
| Cc1cc(Cn2cc[n+](C)c2)c(Oc2c3c(c(C)c(C)[n+]2C)C2=NC3=Nc3c4ccccc4c4[n]3[Zn][n]3c(c5ccccc5c3=N2)=NC2=NC(=N4)c3ccccc32)c(Cn2cc[n+](C)c2)c1.[I-].[I-].[I-] [C1Zn] | λF, fluorescence emission maximum | 696 |
| C[n+]1cccc(Oc2ccc3c(c2)C2=NC3=Nc3c4cc(Oc5ccc[n+](C)c5)ccc4c4[n]3[Zn][n]3c(c5ccc(Oc6ccc[n+](C)c6)cc5c3=NC3=NC(=N4)c4cc(Oc5ccc[n+](C)c5)ccc43)=N2)c1.F[P-](F)(F)(F)(F)F.F[P-](F)(F)(F)(F)F.F[P-](F)(F)(F)(F)F.F[P-](F)(F)(F)(F)F [C5Zn-PF 6] | λF, fluorescence emission maximum | 682 |

Query compound follows.
Task item: Answer with the recorded λF, fluorescence emission maximum for the compound listed here: CC[N+](CC)(CC)CCSc1ccc(SCC[N+](CC)(CC)CC)c2c1C1=NC2=Nc2c3c(SCC[N+](CC)(CC)CC)ccc(SCC[N+](CC)(CC)CC)c3c3[n]2[Zn][n]2c(c4c(SCC[N+](CC)(CC)CC)ccc(SCC[N+](CC)(CC)CC)c4c2=NC2=NC(=N3)c3c(SCC[N+](CC)(CC)CC)ccc(SCC[N+](CC)(CC)CC)c32)=N1.[I-].[I-].[I-].[I-].[I-].[I-].[I-].[I-] [C9Zn]
Reply: 783
